Data origin, for the record: paper PMC8315004

# Target or test system: SARS-CoV-2 M^pro (Severe acute respiratory syndrome coronavirus 2, UniProt P0DTD1)
# Test protocol: biochemical
# Set-up: dose or concentration left out as unconfirmed
# Assay context: initial screen, Table S4; read-out: Normalized Percent FRET inhibition

Compound: C[C@@H]1O[C@@H](OC[C@H]2O[C@@H](Oc3c(-c4ccc(O)c(O)c4)oc4cc(O)cc(O)c4c3=O)[C@H](O)[C@@H](O)[C@@H]2O)[C@H](O)[C@H](O)[C@H]1O [Rutin]
Units of measure: %
inhibition: -0.554
--
Compound: CN(C)[C@@H]1C(O)=C(C(N)=O)C(=O)[C@@]2(O)C(O)=C3C(=O)c4c(O)cccc4[C@@](C)(O)[C@H]3C[C@@H]12 [Tetracycline]
Units of measure: %
inhibition: 40.3
--
Compound: COc1ccc2c(O[C@@H]3C[C@H]4C(=O)N[C@]5(C(=O)NS(=O)(=O)C6CC6)C[C@H]5/C=C\CCCCN(C)C(=O)[C@@H]4C3)cc(-c3nc(C(C)C)cs3)nc2c1C [Simeprevir]
Units of measure: %
inhibition: 72.9
--
Compound: CC(C)(C)NC(=O)[C@@H]1C[C@@H]2CCCC[C@@H]2CN1C[C@@H](O)[C@H](Cc1ccccc1)NC(=O)[C@H](CC(N)=O)NC(=O)c1ccc2ccccc2n1 [Saquinavir]
Units of measure: %
inhibition: -1.34
--
Compound: CS(=O)(=O)CCNCc1ccc(-c2ccc3ncnc(Nc4ccc(OCc5cccc(F)c5)c(Cl)c4)c3c2)o1 [Lapatinib Ditosylate]
Units of measure: %
inhibition: -1.57
